Reported IC50 values for a set of binders
assayed-target: T1, mouse class II IA^b, purified from DB27.4 cells (mouse), P14434
T1 chain 1: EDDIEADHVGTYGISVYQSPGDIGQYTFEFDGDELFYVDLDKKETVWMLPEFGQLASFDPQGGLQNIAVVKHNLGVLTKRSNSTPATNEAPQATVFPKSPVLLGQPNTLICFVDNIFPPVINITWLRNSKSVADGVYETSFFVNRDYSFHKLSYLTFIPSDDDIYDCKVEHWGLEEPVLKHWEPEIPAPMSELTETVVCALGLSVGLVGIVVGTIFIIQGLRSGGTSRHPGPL
T1 chain 2: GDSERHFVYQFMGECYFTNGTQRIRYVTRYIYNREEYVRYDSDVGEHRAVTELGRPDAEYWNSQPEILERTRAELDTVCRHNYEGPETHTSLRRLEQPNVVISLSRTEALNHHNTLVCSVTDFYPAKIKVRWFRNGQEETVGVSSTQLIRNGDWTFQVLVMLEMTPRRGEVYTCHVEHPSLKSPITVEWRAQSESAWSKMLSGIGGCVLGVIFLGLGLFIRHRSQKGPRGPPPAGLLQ
assay-procedure: 125I-peptide inhibition, purified class II
Non-standard residues stand in square brackets, D forms with d. No end group written: not given here. Cha = N[C@@H](CC1CCCCC1)C(=O)O
Return type: number; implicit unit nM.

Consider the following illustrative entries.
NTDGSTDYGILQINSR (modifications not checked) [HEL46-61] = 7000
[dA]A[Cha]VAAATLKAA[dA] [906.09] = 31

Moving on to the next binder.
Exercise: Entry [dA]A[Cha]AAAKTAAAA[dA] [760.50] has what IC50?
Solution: 200
